# measured_target: Recombinant human BRD4 containing dual bromodomains (BRD4-BD12 (1-477)) (Homo sapiens)
# Construct: Recombinant human BRD4 containing dual bromodomains (BRD4-BD12 (1-477))
# protocol: BRD4 Alphascreen binding assay
pIC50: −log10 of the molar value.
Recorded pIC50 by entry

>>> df
                                   compound  value_reported
0  Cc1noc(C)c1-c1cnc2c(c1)c(-c1ccc(C(=O)O)cc1OC(F)(F)F)cn2-c1ccc(F)cc1F [P-0232]    5.10 to 6.00

## Input // pIC50 lookup, key: Cc1noc(C)c1-c1cnc2c(-c3cn(C)nc3C3CC3)c(C(F)(F)F)n([C@@H](C)c3ccccn3)c2c1 [P-0237]
## Output 5.10 to 6.00

## Input Okay, and Cc1noc(C)c1-c1cnc2c(c1)c(-c1ccc(C(=O)O)cc1OC(F)(F)F)cn2-c1ccc(C(N)=O)cc1 [P-0323] ?
## Output 5.10 to 6.00

## Input What do we get for CCOc1nc(C(=O)O)c(C)cc1-c1cn(C(C2CC2)C2CC2)c2ncc(-c3c(C)noc3C)cc12 [P-0416] ?
## Output 3.00 to 5.10

## Input Now consider Cc1noc(C)c1-c1cnc2c(c1)c(-c1c(F)cc(C(=O)O)cc1OC(F)(F)F)cn2C(C1CC1)C1CC1 [P-0230] .
## Output 5.10 to 6.00

## Input Same question for CCOc1cc(C(=O)O)cc(OCC)c1-n1cc(-c2cnn(CS(C)(=O)=O)c2)c2ncc(-c3c(C)noc3C)cc21 [P-0258] please.
## Output 5.10 to 6.00

## Input Repeat for the following compound: COc1cc(C(=O)O)ccc1-c1cn([C@@H](C)c2ccccn2)c2cc(-c3c(C)noc3C)cnc12 [P-0142]
## Output 6.00 to 10.00

## Input What would you report for CCCOc1cc(C(=O)O)cc(OCCC)c1-c1cn([C@@H](C)c2ccccn2)c2ncc(-c3c(C)noc3C)cc12 [P-0117] ?
## Output 5.10 to 6.00
